This collection of values is drawn from patent US20250320312A1.

# subject-of-test: T1, Peptide 4: Biotin-AGGGGSGGGGSGGGGSAAA-Tyr-acid (N-terminal biotin; C-terminal acid)
# T1 construct: Control peptide without PC
# T1 peptide: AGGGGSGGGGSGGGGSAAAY
# experiment-description: scFv ELISA
# Procedure: For ELISA analysis of scFv binding, 96-well polystyrene plates were coated with Peptide 1, 4, 5, 8 or 100 μL BSA (10 μg/mL) in PBS at 4° C. overnight. […] All plates were washed three times with PBS-Tween before 40 μL aliquots of PPE were added to assay plates along with 50 μL 10% BSA, and plates were incubated for 1 hour at room temperature. […] The amount of scFv bound to each well was quantitated from absorbance measurement at 450 nm (OD450).
property: OD450 (OD450)
Report only the number, with the unit OD450 understood.

Consider the reported OD450 for these binders:
binder	OD450, OD450
PcOxP_DB03_B12 (scFv, V domains shown, scFv in periplasmic extract) VH: EVQLLESGGGLVQPGGSLRLSCAASGFQFSDFYMEWVRQAPGKGLEWVAASRWKANDYTTEYADSVKGRFTISRDNSKNTLYLQMNSLRAEDTAVYYCARDYYGSSYWYFDVWGQGTLVTVSS VL: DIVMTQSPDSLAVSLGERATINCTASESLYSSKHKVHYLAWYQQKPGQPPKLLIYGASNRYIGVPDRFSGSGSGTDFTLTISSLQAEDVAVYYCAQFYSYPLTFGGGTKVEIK	0.05
PcOxP_DB02_H08 (scFv, V domains shown, scFv in periplasmic extract) VH: EVQLLESGGGLVQPGGSLRLSCAASGFTFSDAYMEWVRQAPGKGLEWVAASRNKANDYTTEYADSVKGRFTISRDNSKNTLYLQMNSLRAEDTAVYYCARDYYGSHYWYFDVWGQGTLVTVSS VL: DIVMTQSPDSLAVSLGERATINCTSSQSLYSSKHNKHYLAWYQQKPGQPPKLLIYGASNRYIGVPDRFSGSGSGTDFTLTISSLQAEDVAVYYCAQFYSYPLTFGGGTKVEIK	0.04

# input binder: PcOxP_DB04_G08 (scFv, V domains shown, scFv in periplasmic extract) VH: EVQLLESGGGLVQPGGSLRLSCAASGFTGSDFYMEWVRQAPGKGLEWVAASRNKANDYTTEYADSVKGRFTISRDNSKNTLYLQMNSLRAEDTAVYYCARDYYGSSYWYFDVWGQGTLVTVSS VL: DIVMTQSPDSLAVSLGERATINCTASESLYSSKHKVHYLAWYQQKPGQPPKLLIYGASNRYQGVPDRFSGSGSGTDFTLTISSLQAEDVAVYYCAQFYWYPLTFGGGTKVEIK ; wanted: its OD450
0.05
